- REPORTED CONDITIONS: in ethanol, 283.15 K
EXPERIMENTAL READOUT: solubility (mole fraction)
Please reply with the number alone, leaving off any unit.

Problem: Look at this compound and give its reported solubility (mole fraction). `CC1(C)[C@@H](O)CC[C@]2(C)[C@H]3C(=O)C=C4[C@@H]5C[C@@](C)(C(=O)O)CC[C@]5(C)CC[C@@]4(C)[C@]3(C)CC[C@@H]12`
Solution: 0.0115

====

- REPORTED CONDITIONS: in 1,4-dioxane, 313.15 K
EXPERIMENTAL READOUT: solubility (mole fraction)
Please reply with the number alone, leaving off any unit.

Problem: Look at this molecule and give its reported solubility (mole fraction). `CC1(C)[C@@H](O)CC[C@]2(C)[C@H]3C(=O)C=C4[C@@H]5C[C@@](C)(C(=O)O)CC[C@]5(C)CC[C@@]4(C)[C@]3(C)CC[C@@H]12`
Solution: 0.0335

====

- REPORTED CONDITIONS: in water, 323.15 K
EXPERIMENTAL READOUT: solubility (mole fraction)
Please reply with the number alone, leaving off any unit.

Problem: Look at this molecule and give its reported solubility (mole fraction). `CC1(C)[C@@H](O)CC[C@]2(C)[C@H]3C(=O)C=C4[C@@H]5C[C@@](C)(C(=O)O)CC[C@]5(C)CC[C@@]4(C)[C@]3(C)CC[C@@H]12`
Solution: 4.49e-07

====

- REPORTED CONDITIONS: in water, 283.15 K
EXPERIMENTAL READOUT: solubility (mole fraction)
Please reply with the number alone, leaving off any unit.

Problem: Look at this molecule and give its reported solubility (mole fraction). `CC1(C)[C@@H](O)CC[C@]2(C)[C@H]3C(=O)C=C4[C@@H]5C[C@@](C)(C(=O)O)CC[C@]5(C)CC[C@@]4(C)[C@]3(C)CC[C@@H]12`
Solution: 9.91e-08

====

- REPORTED CONDITIONS: in water, 278.15 K
EXPERIMENTAL READOUT: solubility (mole fraction)
Please reply with the number alone, leaving off any unit.

Problem: Look at this compound and give its reported solubility (mole fraction). `CC1(C)[C@@H](O)CC[C@]2(C)[C@H]3C(=O)C=C4[C@@H]5C[C@@](C)(C(=O)O)CC[C@]5(C)CC[C@@]4(C)[C@]3(C)CC[C@@H]12`
Solution: 8.02e-08

====

- REPORTED CONDITIONS: in isopropanol, 308.15 K
EXPERIMENTAL READOUT: solubility (mole fraction)
Please reply with the number alone, leaving off any unit.

Problem: Look at this molecule and give its reported solubility (mole fraction). `CC1(C)[C@@H](O)CC[C@]2(C)[C@H]3C(=O)C=C4[C@@H]5C[C@@](C)(C(=O)O)CC[C@]5(C)CC[C@@]4(C)[C@]3(C)CC[C@@H]12`
Solution: 0.0142

====

- REPORTED CONDITIONS: in DMF, 323.15 K
EXPERIMENTAL READOUT: solubility (mole fraction)
Please reply with the number alone, leaving off any unit.

Problem: Look at this molecule and give its reported solubility (mole fraction). `CC1(C)[C@@H](O)CC[C@]2(C)[C@H]3C(=O)C=C4[C@@H]5C[C@@](C)(C(=O)O)CC[C@]5(C)CC[C@@]4(C)[C@]3(C)CC[C@@H]12`
Solution: 0.0777

====

- REPORTED CONDITIONS: in isopropanol, 323.15 K
EXPERIMENTAL READOUT: solubility (mole fraction)
Please reply with the number alone, leaving off any unit.

Problem: Look at this compound and give its reported solubility (mole fraction). `CC1(C)[C@@H](O)CC[C@]2(C)[C@H]3C(=O)C=C4[C@@H]5C[C@@](C)(C(=O)O)CC[C@]5(C)CC[C@@]4(C)[C@]3(C)CC[C@@H]12`
Solution: 0.017

====

- REPORTED CONDITIONS: in DMF, 283.15 K
EXPERIMENTAL READOUT: solubility (mole fraction)
Please reply with the number alone, leaving off any unit.

Problem: Look at this molecule and give its reported solubility (mole fraction). `CC1(C)[C@@H](O)CC[C@]2(C)[C@H]3C(=O)C=C4[C@@H]5C[C@@](C)(C(=O)O)CC[C@]5(C)CC[C@@]4(C)[C@]3(C)CC[C@@H]12`
Solution: 0.0478

====

- REPORTED CONDITIONS: in 1,4-dioxane, 288.15 K
EXPERIMENTAL READOUT: solubility (mole fraction)

Problem: Look at this compound and give its reported solubility (mole fraction). `CC1(C)[C@@H](O)CC[C@]2(C)[C@H]3C(=O)C=C4[C@@H]5C[C@@](C)(C(=O)O)CC[C@]5(C)CC[C@@]4(C)[C@]3(C)CC[C@@H]12`
Solution: 0.0277

====

- REPORTED CONDITIONS: in 1,4-dioxane, 293.15 K
EXPERIMENTAL READOUT: solubility (mole fraction)
Please reply with the number alone, leaving off any unit.

Problem: Look at this compound and give its reported solubility (mole fraction). `CC1(C)[C@@H](O)CC[C@]2(C)[C@H]3C(=O)C=C4[C@@H]5C[C@@](C)(C(=O)O)CC[C@]5(C)CC[C@@]4(C)[C@]3(C)CC[C@@H]12`
Solution: 0.0286

====

- REPORTED CONDITIONS: in 1,4-dioxane, 308.15 K
EXPERIMENTAL READOUT: solubility (mole fraction)
Please reply with the number alone, leaving off any unit.

Problem: Look at this molecule and give its reported solubility (mole fraction). `CC1(C)[C@@H](O)CC[C@]2(C)[C@H]3C(=O)C=C4[C@@H]5C[C@@](C)(C(=O)O)CC[C@]5(C)CC[C@@]4(C)[C@]3(C)CC[C@@H]12`
Solution: 0.0323

====

- REPORTED CONDITIONS: in isopropanol, 293.15 K
EXPERIMENTAL READOUT: solubility (mole fraction)

Problem: Look at this compound and give its reported solubility (mole fraction). `CC1(C)[C@@H](O)CC[C@]2(C)[C@H]3C(=O)C=C4[C@@H]5C[C@@](C)(C(=O)O)CC[C@]5(C)CC[C@@]4(C)[C@]3(C)CC[C@@H]12`
Solution: 0.0116

====

- REPORTED CONDITIONS: in ethanol, 303.15 K
EXPERIMENTAL READOUT: solubility (mole fraction)

Problem: Look at this compound and give its reported solubility (mole fraction). `CC1(C)[C@@H](O)CC[C@]2(C)[C@H]3C(=O)C=C4[C@@H]5C[C@@](C)(C(=O)O)CC[C@]5(C)CC[C@@]4(C)[C@]3(C)CC[C@@H]12`
Solution: 0.0141

====

- REPORTED CONDITIONS: in 1,4-dioxane, 298.15 K
EXPERIMENTAL READOUT: solubility (mole fraction)
Please reply with the number alone, leaving off any unit.

Problem: Look at this compound and give its reported solubility (mole fraction). `CC1(C)[C@@H](O)CC[C@]2(C)[C@H]3C(=O)C=C4[C@@H]5C[C@@](C)(C(=O)O)CC[C@]5(C)CC[C@@]4(C)[C@]3(C)CC[C@@H]12`
Solution: 0.0298

====

- REPORTED CONDITIONS: in 1,4-dioxane, 323.15 K
EXPERIMENTAL READOUT: solubility (mole fraction)
Please reply with the number alone, leaving off any unit.

Problem: Look at this compound and give its reported solubility (mole fraction). `CC1(C)[C@@H](O)CC[C@]2(C)[C@H]3C(=O)C=C4[C@@H]5C[C@@](C)(C(=O)O)CC[C@]5(C)CC[C@@]4(C)[C@]3(C)CC[C@@H]12`
Solution: 0.0366

====

- REPORTED CONDITIONS: in ethanol, 318.15 K
EXPERIMENTAL READOUT: solubility (mole fraction)

Problem: Look at this compound and give its reported solubility (mole fraction). `CC1(C)[C@@H](O)CC[C@]2(C)[C@H]3C(=O)C=C4[C@@H]5C[C@@](C)(C(=O)O)CC[C@]5(C)CC[C@@]4(C)[C@]3(C)CC[C@@H]12`
Solution: 0.0163

====

- REPORTED CONDITIONS: in water, 288.15 K
EXPERIMENTAL READOUT: solubility (mole fraction)
Please reply with the number alone, leaving off any unit.

Problem: Look at this molecule and give its reported solubility (mole fraction). `CC1(C)[C@@H](O)CC[C@]2(C)[C@H]3C(=O)C=C4[C@@H]5C[C@@](C)(C(=O)O)CC[C@]5(C)CC[C@@]4(C)[C@]3(C)CC[C@@H]12`
Solution: 1.22e-07

====

- REPORTED CONDITIONS: in DMF, 288.15 K
EXPERIMENTAL READOUT: solubility (mole fraction)
Please reply with the number alone, leaving off any unit.

Problem: Look at this molecule and give its reported solubility (mole fraction). `CC1(C)[C@@H](O)CC[C@]2(C)[C@H]3C(=O)C=C4[C@@H]5C[C@@](C)(C(=O)O)CC[C@]5(C)CC[C@@]4(C)[C@]3(C)CC[C@@H]12`
Solution: 0.051

Cited source: BigSolDB 2.1
